# TARGET UNDER TEST: Neu5Ac(a2-6)Gal(b1-4)GlcNAc(b1-2)Man(a1-3)[GlcNAc(b1-2)Man(a1-6)]Man(b1-4)GlcNAc(b1-4)GlcNAc
# EXPERIMENT DESCRIPTION: glycan array binding signal (z-score within array); higher = stronger binding
# DETAILS: glycan notation: IUPAC condensed, linker removed
Only a selection was taken, and the strongest signals are over-represented in it overall.
QUANTITY: glycan array binding signal (z-score)

// for each binder in input: emit glycan array binding signal (z-score)
1. CALR truncated at D342 (Homo sapiens) (protein) EPAVYFKEQFLDGDGWTSRWIESKHKSDFGKFVLSSGKFYGDEEKDKGLQTSQDARFYALSASFEPFSNKGQTLVVQFTVKHEQNIDCGGGYVKLFPNSLDQTDMHGDSEYNIMFGPDICGPGTKKVHVIFNYKGKNVLINKDIRCKDDEFTHLYTLIVRPDNTYEVKIDNSQVESGSLEDDWDFLPPKKIKDPDASKPEDWDERAKIDDPTDSKPEDWDKPEHIPDPDAKKPEDWDEEMDGEWEPPVIQNPEYKGEWKPRQIDNPDYKGTWIHPEIDNPEYSPDPSIYAYDNFGVLGLDLWQVKSGTIFDNFLITNDEAYAEEFGNETWGVTKAAEKQMKD
2. LSECtin (Homo sapiens), Q6UXB4 (protein) MDTTRYSKWGGSSEEVPGGPWGRWVHWSRRPLFLALAVLVTTVLWAVILSILLSKASTERAALLDGHDLLRTNASKQTAALGALKEEVGDCHSCCSGTQAQLQTTRAELGEAQAKLMEQESALRELRERVTQGLAEAGRGREDVRTELFRALEAVRLQNNSCEPCPTSWLSFEGSCYFFSVPKTTWAAAQDHCADASAHLVIVGGLDEQGFLTRNTRGRGYWLGLRAVRHLGKVQGYQWVDGVSLSFSHWNQGEPNDAWGRENCVMMLHTGLWNDAPCDSEKDGWICEKRHNC
3. LSECtin (Homo sapiens), Q6UXB4 (protein) MEQESALRELRERVTQGLAEAGRGREDVRTELFRALEAVRLQNNSCEPCPTSWLSFEGSCYFFSVPKTTWAAAQDHCADASAHLVIVGGLDEQGFLTRNTRGRGYWLGLRAVRHLGKVQGYQWVDGVSLSFSHWNQGEPNDAWGRENCVMMLHTGLWNDAPCDSEKDGWICEKKAQLLTPPSALEPRPLQHVVSWGLLTSLAPGADCQRVFSSSSTAAESQKHLAQHSPVQPSAWALGPPCRPHPNSTHADPT
4. Gal 8 (Homo sapiens), O00214 (protein) MMLSLNNLQNIIYNPVIPFVGTIPDQLDPGTLIVIRGHVPSDADRFQVDLQNGSSMKPRADVAFHFNPRFKRAGCIVCNTLINEKWGREEITYDTPFKREKSFEIVIMVKDKFQVAVNGKHTLLYGHRIGPEKIDTLGIYGKVNIHSIGFSFSSDLQSTQASSLELTEISRENVPKSGTPQLPSNRGGDISKIAPRTVYTKSKDSTVNHTLTCTKIPPMNYVSKRLPFAARLNTPMGPGRTVVVKGEVNANAKSFNVDLLAGKSKDIALHLNPRLNIKAFVRNSFLQESWGEEERNITSFPFSPGMYFEMIIYCDVREFKVAVNGVHSLEYKHRFKELSSIDTLEINGDIHLLEVRSW

1. -0.321
2. 0.942
3. 5.63
4. -0.45
